Assay Method Text: cell viability assay, fiber counting (mortality rate)
Conditions: male, C57BL6, mouse

{"Sample Smiles": "N[C@@H](Cc1cc(O)c(O)cc1F)C(=O)O", "mortality at 3 h, 0.02 mg/ml": "< 15%"}

###

Assay Method Text: cell viability assay, fiber counting (mortality rate)
Conditions: male, C57BL6, mouse

{"Sample Smiles": "N[C@@H](Cc1cc(O)c(O)cc1F)C(=O)O", "mortality at 3 h, 0.05 mg/ml": "> 50%"}
